# test system: T1, human IL-18 binding protein (human, UniProt O95998 31-194)
# T1 sequence (looked up): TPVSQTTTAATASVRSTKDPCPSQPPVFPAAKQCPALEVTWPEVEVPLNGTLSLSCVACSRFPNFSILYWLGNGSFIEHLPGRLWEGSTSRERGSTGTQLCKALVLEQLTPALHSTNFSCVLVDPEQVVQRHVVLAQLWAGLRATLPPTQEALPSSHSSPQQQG
# experiment notes: cell-based or functional assay
experimental endpoint: HEK-blue EC50 (pM) + 300 nM BP
Kindly provide the numeric value in pM only, without the unit symbol.

I would be grateful if you could share the reported HEK-blue EC50 (pM) + 300 nM BP for human IL-18 variant G3V/K53A/M60K (ligand) YFVKLESKLSVIRNLNDQVLFIDQGNRPLFEDMTDSDMRDNAPRTIFIISMYADSQPRGKAVTISVKSEKISTLSSENKIISFKEMNPPDNIKDTKSDIIFFQRSVPGHDNKMQFESSSYEGYFLASEKERDLFKLILKKEDELGDRSIMFTVQNED .
0.063

I would be grateful if you could share the reported HEK-blue EC50 (pM) + 300 nM BP for human IL-18 variant G3T/E6K/K53S/M60K (ligand) YFTKLKSKLSVIRNLNDQVLFIDQGNRPLFEDMTDSDMRDNAPRTIFIISMYSDSQPRGKAVTISVKSEKISTLSSENKIISFKEMNPPDNIKDTKSDIIFFQRSVPGHDNKMQFESSSYEGYFLASEKERDLFKLILKKEDELGDRSIMFTVQNED .
0.308

I would be grateful if you could share the reported HEK-blue EC50 (pM) + 300 nM BP for human IL-18 variant G3V/K53S/M60K (ligand) YFVKLESKLSVIRNLNDQVLFIDQGNRPLFEDMTDSDMRDNAPRTIFIISMYSDSQPRGKAVTISVKSEKISTLSSENKIISFKEMNPPDNIKDTKSDIIFFQRSVPGHDNKMQFESSSYEGYFLASEKERDLFKLILKKEDELGDRSIMFTVQNED .
2.18
